# Test system: CEM cells
# PROTOCOL_TEXT: Toxicity in CEM cells
# Type: cell-based
# RUN_CONDITIONS: Table 3
PARAMETER: pIC50
pIC50 here is simply -log10 of the concentration when that concentration is written in mol/L.

# pIC50 measured on CEM cells for item `Nc1ccn([C@@H]2C=C[C@H](CO)O2)c(=O)n1` = 6.14

# pIC50 measured on CEM cells for item `Nc1nc(=O)n([C@@H]2C=C[C@H](CO)O2)cc1F` = 5.14

###

# Tested on: 2.2.15 cells (HepG2 cells transformed with hepatitis virion)
# PROTOCOL_TEXT: Toxicity in 2.2.15 cells by neutral red dye uptake
# Type: cell-based
# RUN_CONDITIONS: Table 2; 2.2.15 cells; read-out: Cytotoxicity IC50 ± SD
# Protocol: Toxicity analyses were performed to assess whether any observed antiviral effects were due to a general effect on cell viability. The method used herein was the measurement of the uptake of neutral red dye, a standard and widely used assay for cell viability in a variety of virus-host systems, including HSV and HIV. Toxicity analyses were performed in 96-well flat bottomed tissue culture plates. […] The absorbance of internalized dye at 510 nm (Asin) was used for the quantitative analysis. […]
PARAMETER: IC50 (µM)
Report the value in µM with no unit label.

Form field IC50, entry NC(=O)c1cn([C@@H]2CS[C@H](CO)O2)c(=O)nc1N [C Carboxamide (−)-β-L] : 1750

###

# System: HIV-1 (strain LAV)
# PROTOCOL_TEXT: Anti-HIV-1 activity in PHA-stimulated human PBM cells (reverse transcriptase readout)
# Type: cell-based
# RUN_CONDITIONS: Table 1; HIV-1LAI; human PBM cells; estimated 10% error factor; read-out: Anti-HIV-1 in PBMC EC50
PARAMETER: log10 EC50 (log10 of the value in µM)
log10 EC50, µM

Form field log10 EC50, entry O=c1[nH]c(=O)n([C@@H]2CS[C@H](CO)O2)cc1[N+](=O)[O-] (racemic) [U Nitro (±)-β-DL] : 2.09

Form field log10 EC50, entry Nc1nc(=O)n([C@@H]2CS[C@H](CO)O2)cc1[N+](=O)[O-] (racemic) [C Nitro (±)-β-DL] : 2.00

Form field log10 EC50, entry Nc1ccn([C@@H]2CS[C@H](CO)O2)c(=O)n1 (single isomer, unassigned) [3TC, reference compound] : -2.70

Form field log10 EC50, entry COC(=O)c1cn(C2CSC(CO)O2)c(=O)nc1N (racemic) [C Methoxycarbonyl (±)-β-DL] : 1.59

Form field log10 EC50, entry Nc1cn([C@@H]2CS[C@H](CO)O2)c(=O)nc1N (racemic) [C Amino (±)-β-DL] : 1.42

Form field log10 EC50, entry C#Cc1cn([C@@H]2CS[C@H](CO)O2)c(=O)[nH]c1=O (racemic) [U Ethynyl (±)-β-DL] : 1.38

Form field log10 EC50, entry Nc1cn([C@@H]2CS[C@H](CO)O2)c(=O)[nH]c1=O (racemic) [U Amino (±)-β-DL] : 2.08

Form field log10 EC50, entry CCc1cn([C@@H]2CS[C@H](CO)O2)c(=O)nc1N (racemic) [C Ethyl (±)-β-DL] : 2.01

Form field log10 EC50, entry NC(=O)c1cn([C@@H]2CS[C@H](CO)O2)c(=O)nc1N [C Carboxamide (−)-β-L] : 0.56
